This collection of values is drawn from paper PMC9482650.

target: PDLIM1, O00151; test: holdup assay; parameters: key: below the threshold = too weak to quantify, mostly under pKd 3.1 to 4; conditions: plain residues with an end cap or a label only (N-terminal biotin on a linker: ado-ado)
Sequence (O00151 1-87): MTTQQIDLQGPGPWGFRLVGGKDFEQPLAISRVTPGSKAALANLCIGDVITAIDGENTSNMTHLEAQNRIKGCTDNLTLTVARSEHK
Measure name: pKd

{"columns": ["Binder", "Measure name", "Observed value"],
 "data": [
  ["ATKDKKITTV [EXOC4, Q96A65]", "pKd", 3.49],
  ["KLQNPNQSVV [TYRP1, P17643]", "pKd", "below the threshold"],
  ["NISARRFTLC [FAM167B, Q9BTA0]", "pKd", "below the threshold"],
  ["RSPVATATSC [DUSP5, Q16690]", "pKd", "below the threshold"],
  ["STYCDYTIEI [FAM71C, Q8NEG0]", "pKd", "below the threshold"],
  ["PLPPEEESWV [GAS2L2, Q8NHY3]", "pKd", 4.22],
  ["GNDPDRGTSI [GRID2, O43424]", "pKd", "below the threshold"],
  ["EFKQTSSFLV [JAM1, Q9Y624]", "pKd", "below the threshold"]
]}
